- Tested on: primary fibroblasts (IMR90) transduced with H-RasG12V
- PROCEDURE_TEXT: Validation: senescence-associated heterochromatin foci (SAHF) positive cells by DAPI staining
- Type: cell-based, human
- DETAILS: 250 nM inhibitor, +H-RasG12V IMR90, 9 days of culture, >300 cells counted, triplicate
ASSAY_READOUT: % SAHF + Cells Avg (%)
The reply should contain only the number, in %.

The recorded % SAHF + Cells Avg for COc1cc2nccc(Oc3ccc(NC(=S)NC(=O)c4ccccc4C)cc3)c2cc1OC [347155-76-4, PDGFR Tyrosine Kinase Inhibitor V] is 16.3

Entry Cn1sc(=O)n(Cc2ccccc2)c1=O [327036-89-5, GSK3β Inhibitor I] ; % SAHF + Cells Avg = 7.8

Recorded % SAHF + Cells Avg (compound Cc1cc(Nc2nc(-c3ccccc3)nc3ccccc23)n[nH]1 [404828-08-6, GSK-3 Inhibitor XIII] ): 7.0

The recorded % SAHF + Cells Avg for CCc1[nH]c(-c2ccc(OC)cc2)nc1-c1ccncc1 [172747-50-1, SB 202474] is 10.4

Value of measured % SAHF + Cells Avg for the entry O=c1c(-c2ccc(F)cc2)c(-c2ccncc2)[nH]n1-c1ccc(Cl)cc1 [219138-24-6, P38 MAPK Inhibitor] : 16.3

response.value for c1cc(-c2cnn3cc(-c4ccc(OCCN5CCCCC5)cc4)cnc23)ccn1 [866405-64-3, AMPK Compound C] (field: % SAHF + Cells Avg) = 15.9

Record Cc1[nH]c(/C=C2\C(=O)Nc3ccc(S(=O)(=O)N(C)c4cccc(Cl)c4)cc32)c(C)c1C(=O)N1CCN(C)CC1 [658084-23-2, Met Kinase inhibitor] . Reported % SAHF + Cells Avg: 14.7

Please fill in: % SAHF + Cells Avg reported for O=C(Nc1ccc(Cl)cc1)c1ccccc1NCc1ccncc1 [269390-69-4, VEGFR Tyrosine Kinase Inhibitor II] = 13.0

response.value for O=C(Nc1cccc(Nc2nccc(Nc3cccc(C(F)(F)F)c3)n2)c1)C1CC1 [879127-16-9, Aurora Kinase Inhibitor III] (field: % SAHF + Cells Avg) = 15.8

In plain terms, O=c1c2ccccc2[nH]c(=S)n1CCN1CCC(=C(c2ccc(F)cc2)c2ccc(F)cc2)CC1 [120166-69-0, Diacylglycerol Kinase Inhibitor II] has a documented % SAHF + Cells Avg of 10.4

----------
For each record, write down the corresponding % SAHF + Cells Avg.
- System: primary fibroblasts (IMR90) transduced with H-RasG12V
- PROCEDURE_TEXT: Validation: senescence-associated heterochromatin foci (SAHF) positive cells by DAPI staining
- Assay type: cell-based, human
- DETAILS: 250 nM inhibitor, +H-RasG12V IMR90, 9 days of culture, >300 cells counted, triplicate
- Method: Cells with β-galactosidase (blue) positivity within the cytosol were considered positive. Cells were stained with DAPI to visualize nuclei and SAHF. Cells with punctate spots within the nuclear compartment were considered SAHF positive. Cells were imaged using a Nikon Eclipse Ni fluorescence microscope as previously described^15. Three different fields of cells were counted (total cells counted >300). These experiments were performed in triplicate. […]
Supply the numeric figure in %, leaving out any unit text.

compound `O=c1[nH]c2ccccc2n1C1CCN(Cc2ccc(-c3nc4cc5[nH]cnc5cc4nc3-c3ccccc3)cc2)CC1` , % SAHF + Cells Avg observed: 11.3

Recorded result, `COc1ccc(S(=O)(=O)N(CCO)c2ccccc2CN(C)CC=Cc2ccc(Cl)cc2)cc1` , % SAHF + Cells Avg: 12.3

The compound `NC(=O)c1ccc2nc(-c3ccc(Oc4ccc(Cl)cc4)cc3)[nH]c2c1` showed % SAHF + Cells Avg equal to 13.2

The value of % SAHF + Cells Avg measured for the compound `Cc1nc2cc3nc(-c4cccs4)cnc3cc2n1C` turned out to be 10.2

The compound `O=C1NC(=O)/C(=C/c2ccc3c(c2)OC(F)(F)O3)S1` showed % SAHF + Cells Avg equal to 26.9

Just so you know, measured % SAHF + Cells Avg for `COc1cc2ncnc(Nc3cccc(Cl)c3)c2cc1OC` came out at 11.5

Short answer for `O=C1NC(=O)C(c2cn(CCCn3ccnc3)c3ccccc23)=C1Nc1ccccc1` : % SAHF + Cells Avg was 8.3

Item: `Oc1cccc(-c2nc(N3CCOCC3)c3oc4ncccc4c3n2)c1` | % SAHF + Cells Avg: 43.0
